assay: in vivo; conditions: Sprague-Dawley, rat, iv, 4 mg/kg
quantity: clearance (mL/min/kg)
Write the answer as a number in mL/min/kg, unit excluded.

What clearance value was documented for this molecule, Cn1c(C(=O)NCCCN2CCOCC2)cc2c(-c3ccc(NC(=O)C(C)(C)C)cc3)ncnc21 ?
3.3

====

assay: in vivo; conditions: Sprague-Dawley, rat, iv, 4 mg/kg
Description: Half life in Sprague-Dawley rat at 4 mg/kg, iv administered as bolus dose
quantity: half-life (h)
Write the answer as a number in h, unit excluded.

What half-life value was documented for this compound, Cn1c(C(=O)NCCCN2CCOCC2)cc2c(-c3ccc(NC(=O)C(C)(C)C)cc3)ncnc21 ?
2.09

====

assay: in vivo; details: Sprague-Dawley, rat, iv, 4 mg/kg
quantity: Vd (L/kg)
Write the answer as a number in L/kg, unit excluded.

What Vd value was documented for this compound, Cn1c(C(=O)NCCCN2CCOCC2)cc2c(-c3ccc(NC(=O)C(C)(C)C)cc3)ncnc21 ?
0.612
